B1: Azoarcus group I ribozyme (parent)
chain: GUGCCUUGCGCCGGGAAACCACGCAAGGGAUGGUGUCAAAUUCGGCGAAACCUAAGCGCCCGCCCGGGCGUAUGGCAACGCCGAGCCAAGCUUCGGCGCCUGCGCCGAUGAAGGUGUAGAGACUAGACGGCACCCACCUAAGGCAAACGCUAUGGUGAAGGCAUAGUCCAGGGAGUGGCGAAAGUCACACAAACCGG

Variants of: B1
Assay: reverse-splicing fitness (ratio to wild type); higher = more active; in vitro selection; Mg2+ level not given
Grouping rule (reverse-splicing fitness): LOW = under 0.007, MEDIUM = from 0.007 up to 0.01, HIGH = 0.01 and over

C82G A111C A145U C169A: MEDIUM
C82A A111U A120U C150U C169G U176G: LOW
C82U A111U A120G C150A U176A: HIGH
C82A A111U A120U C150U C169U: LOW
A111U A120G A145U C150G C169G U176G: LOW

Which category does the recorded reverse-splicing fitness put C82U A120C A145C C150A C169U U176G in?
LOW

Another variant to look at: C82G A111G A120G A145G C150G U176G
LOW

Subsequent entry: A145C C150G C169U U176G
LOW

Now give it for A111C A145C U176G too.
HIGH

Also check C82A A145U C150A C169A U176C
HIGH

What do you have for A120G A145U C150A C169G U176G ?
LOW

// same read-out, input: C82G A111U C150G C169U U176A
MEDIUM

Next record, please: C82G A120G C150G C169A U176G
LOW

Input C82U A111C A120G A145U C150G C169A U176C
MEDIUM

Record: C82G A111C A120C A145U C150U C169U U176A
HIGH

Moving on to the next variant: A111U A145C C169G U176G
LOW

Can you check C82A A145U C169A next?
MEDIUM
